Test: Pharmacokinetic study of Example 3 in mouse (IV, IP)
Assay type: in vivo, C57 Mouse
Details: C57, mouse, plasma, intravenous, 5 mg/kg, 5 mg/kg IV; 4.00 h; mean; read-out: Plasma concentrations
MEASURED PARAMETER: concentration at 4 h (ng/mL)
Answers are plain numbers, in ng/mL.

# return recorded concentration at 4 h for entry Cc1ccc(Nc2nc(N/N=C/c3c[nH]c4ccccc34)cc(N3CCOCC3)n2)cc1
70.1

----------
Experiment: Pharmacokinetic study of Example 1 in mouse (IV, IP, PO)
Assay type: in vivo, Male C57BL/6 Mouse
Details: male, C57BL/6, mouse, plasma, po, 30 mg/kg, PO 30 mg/kg; individual mice M7-M9; read-out: MRT0-last
MEASURED PARAMETER: MRT last
Your answer should be a number followed by the unit of measure.

# return recorded MRT last for entry Cc1ccc(Nc2nc(N/N=C/c3c[nH]c4ccccc34)nc(N3CCOCC3)n2)cc1 [Example 1]
1.69 h

----------
Assay: Pharmacokinetic study of Example 3 in mouse (IV, IP)
Type: in vivo, C57 Mouse
Settings: C57, mouse, plasma, intraperitoneal, 30 mg/kg, 30 mg/kg IP; 0.50 h; mean; read-out: Plasma concentrations
MEASURED PARAMETER: concentration at 0.5 h (ng/mL)
One number for each entry, in ng/mL.

# return recorded concentration at 0.5 h for entry Cc1ccc(Nc2nc(N/N=C/c3c[nH]c4ccccc34)cc(N3CCOCC3)n2)cc1
2010

----------
Assay: Pharmacokinetic study of Example 1 in mouse (IV, IP, PO)
Format: in vivo, Male C57BL/6 Mouse
Conditions: male, C57BL/6, mouse, plasma, iv, 5 mg/kg, IV 5 mg/kg; mean
MEASURED PARAMETER: AUC(0-t) (ng·h/mL)
Answers are plain numbers, in ng·h/mL.

# return recorded AUC(0-t) for entry Cc1ccc(Nc2nc(N/N=C/c3c[nH]c4ccccc34)nc(N3CCOCC3)n2)cc1 [Example 1]
1580

----------
Assay: Pharmacokinetic study of Example 3 in mouse (IV, IP)
Format: in vivo, C57 Mouse
Conditions: C57, mouse, plasma, iv, 5 mg/kg, 5 mg/kg IV; mean
MEASURED PARAMETER: AUC(0-t) (ng·h/mL)
Give bare numbers, in ng·h/mL.

# return recorded AUC(0-t) for entry Cc1ccc(Nc2nc(N/N=C/c3c[nH]c4ccccc34)cc(N3CCOCC3)n2)cc1
4580

----------
Assay: Pharmacokinetic study of Example 1 in mouse (IV, IP, PO)
Assay type: in vivo, Male C57BL/6 Mouse
Details: male, C57BL/6, mouse, plasma, iv, 5 mg/kg, IV 5 mg/kg; mean; read-out: AUC0-inf
MEASURED PARAMETER: AUC(0-inf) (ng·h/mL)
Numbers only, in ng·h/mL.

# return recorded AUC(0-inf) for entry Cc1ccc(Nc2nc(N/N=C/c3c[nH]c4ccccc34)nc(N3CCOCC3)n2)cc1
1580

----------
Experiment: Pharmacokinetic study of Example 3 in mouse (IV, IP)
Assay type: in vivo, C57 Mouse
Conditions: C57, mouse, plasma, intravenous, 5 mg/kg, 5 mg/kg IV; 0.50 h; mean; read-out: Plasma concentrations
Protocol: Species: C57 Mouse. Dose Route: IV&IP. Formulation Vehicle: IV&IP: 10% DMSO/30% PEG400/60% Saline. Dose Level: IV (5 mg/kg) and IP (30 mg/kg). Dose Volume: IV (5 mL/kg) and IP (10 mL/kg). Formulation concentrations: IV (1 mg/mL) and IP (3 mg/mL). LLOQ: IV (2 ng/mL) and IP (10 ng/mL).
MEASURED PARAMETER: concentration at 0.5 h (ng/mL)
One number for each entry, in ng/mL.

# return recorded concentration at 0.5 h for entry Cc1ccc(Nc2nc(N/N=C/c3c[nH]c4ccccc34)cc(N3CCOCC3)n2)cc1
2180
